Where do the numbers come from? From patent US20240376170A1.

# assayed_system: T1, IL-2 receptor βγ complex (human, UniProt P14784 27-551; P31785 23-369)
# T1 sequence (looked up) 1: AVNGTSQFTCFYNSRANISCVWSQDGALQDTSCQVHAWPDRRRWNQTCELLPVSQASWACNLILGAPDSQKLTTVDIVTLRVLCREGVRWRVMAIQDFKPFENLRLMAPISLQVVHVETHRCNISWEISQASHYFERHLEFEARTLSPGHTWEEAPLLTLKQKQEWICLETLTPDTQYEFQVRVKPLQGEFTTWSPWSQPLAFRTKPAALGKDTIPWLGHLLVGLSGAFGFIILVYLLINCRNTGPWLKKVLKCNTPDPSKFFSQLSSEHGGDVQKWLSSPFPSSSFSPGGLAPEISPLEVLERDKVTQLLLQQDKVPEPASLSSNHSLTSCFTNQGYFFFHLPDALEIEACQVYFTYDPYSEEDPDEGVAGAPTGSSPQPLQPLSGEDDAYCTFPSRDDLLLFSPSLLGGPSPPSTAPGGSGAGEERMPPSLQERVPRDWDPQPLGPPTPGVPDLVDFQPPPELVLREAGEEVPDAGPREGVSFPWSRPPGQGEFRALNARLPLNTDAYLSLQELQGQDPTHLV
# T1 sequence (looked up) 2: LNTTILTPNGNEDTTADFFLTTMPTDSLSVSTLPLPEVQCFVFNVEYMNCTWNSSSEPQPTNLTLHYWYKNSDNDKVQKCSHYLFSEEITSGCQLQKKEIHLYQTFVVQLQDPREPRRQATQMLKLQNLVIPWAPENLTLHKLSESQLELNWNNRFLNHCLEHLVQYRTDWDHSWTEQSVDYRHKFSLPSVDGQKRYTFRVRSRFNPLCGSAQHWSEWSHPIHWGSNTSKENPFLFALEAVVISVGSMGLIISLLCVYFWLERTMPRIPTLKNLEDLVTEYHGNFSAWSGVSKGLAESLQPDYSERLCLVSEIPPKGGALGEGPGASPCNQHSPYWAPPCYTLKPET
# measurement_description: cell-based or functional assay
Bridges are numbered along the chain shown (N, C = ends). Primed or numbered codes have the meaning given here. [ ]: non-standard residue; d: D form. Ygp(4) = Tyr with amino-capped PEG8 (O-(8x polyethylene glycol-amino)-tyrosine); Yn3(4) = Tyr with azide-capped PEG9 (O-(9x polyethylene glycol-azido)-tyrosine); Ygp = O-(8x polyethylene glycol-amino)-tyrosine (Tyr, amino-capped PEG8); Yn3 = O-(9x polyethylene glycol-azido)-tyrosine (Tyr, azide-capped PEG9); Ygp″ = O-(8x polyethylene glycol-amino)-tyrosine; Yn3″ = O-(9x polyethylene glycol-azido)-tyrosine; PEG24′ = 24x polyethylene glycol; PEG4′ = 4x polyethylene glycol; PEG9′ = 9x polyethylene glycol; hSer = N[C@@H](CCO)C(=O)O; Nle = CCCC[C@H](N)C(=O)O
We use 10 nM as the dividing line for Average EC50, pSTAT5 Assay (T cells): on or above the line is 1.0, below is 0.0.

| binder | assigned_class |
| --- | --- |
| CMP-160 (ligand, bridge N-34; not fully specified (bridges); ends not checked) GPLGLAG[PEG9′]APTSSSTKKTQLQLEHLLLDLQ[Nle]ILEGINNYKNPKLTR[Nle]L[hSer][Yn3(4)]KF[Ygp(4)][Nle]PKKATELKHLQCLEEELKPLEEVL[hSer]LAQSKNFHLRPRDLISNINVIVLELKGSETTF[hSer]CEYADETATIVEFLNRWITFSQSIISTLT | 1.0 |
| CMP-158 (ligand, bridge N-30; not fully specified (bridges); ends not checked) GPLGLAG[PEG4′]APTSSSTKKTQLQLEHLLLDLE[Nle]ILNGINNYKNPKLTR[Nle]L[hSer][Yn3(4)]KF[Ygp(4)][Nle]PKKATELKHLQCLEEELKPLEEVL[hSer]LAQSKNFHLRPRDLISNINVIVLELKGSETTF[hSer]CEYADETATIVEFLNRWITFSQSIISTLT | 1.0 |
| CMP-137 (ligand, bridge (positions not given here); not fully specified (bridges); ends not checked) [PEG24′]PLGLAG[PEG24′]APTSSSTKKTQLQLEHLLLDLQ[Nle]ILNGIENYKNPKLTR[Nle]L[hSer][Yn3]KF[Ygp][Nle]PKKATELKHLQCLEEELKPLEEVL[hSer]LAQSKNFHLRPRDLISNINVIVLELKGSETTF[hSer]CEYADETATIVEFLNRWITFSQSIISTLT | 1.0 |
| CMP-136, MMP2 cleaved molecule (ligand, ends and bridges not checked; also: cleaved by MMP2, cleavage product not defined, N-terminal PEG9 link and Glu29 side-chain attachment of the cleavable peptide not defined) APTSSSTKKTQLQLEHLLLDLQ[Nle]ILNGIENYKNPKLTR[Nle]L[hSer][Yn3]KF[Ygp][Nle]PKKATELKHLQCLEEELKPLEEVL[hSer]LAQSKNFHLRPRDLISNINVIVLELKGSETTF[hSer]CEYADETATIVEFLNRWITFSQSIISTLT | 0.0 |
| CMP-157 (ligand, linker N-25 via PEG4′) PLGLAGAPTSSSTKKTQLQLEHLLEDLQ[Nle]ILNGINNYKNPKLTR[Nle]L[hSer][Yn3″]KF[Ygp″][Nle]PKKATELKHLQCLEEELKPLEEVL[hSer]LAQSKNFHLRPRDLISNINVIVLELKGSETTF[hSer]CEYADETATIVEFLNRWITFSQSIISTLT | 1.0 |
| CMP-156, MMP2 cleaved molecule (ligand, not fully specified; also: MMP2 cleaved, cleavage site and linker fragments on N-terminus and Glu19 side chain not given here) APTSSSTKKTQLQLEHLLEDLQ[Nle]ILNGINNYKNPKLTR[Nle]L[hSer][Yn3″]KF[Ygp″][Nle]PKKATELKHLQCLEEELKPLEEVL[hSer]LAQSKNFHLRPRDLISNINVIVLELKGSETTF[hSer]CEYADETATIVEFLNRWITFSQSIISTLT | 1.0 |
| CMP-154 (ligand, linker N-35 via PEG9′) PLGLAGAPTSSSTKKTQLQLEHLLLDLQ[Nle]ILNGIENYKNPKLTR[Nle]L[hSer][Yn3″]KF[Ygp″][Nle]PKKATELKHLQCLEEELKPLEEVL[hSer]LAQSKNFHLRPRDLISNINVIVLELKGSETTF[hSer]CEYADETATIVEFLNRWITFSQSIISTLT | 1.0 |
| CMP-161, MMP2 cleaved molecule (ligand, not fully specified (bridges); ends and bridges not checked; also: MMP2 cleaved, site not given here) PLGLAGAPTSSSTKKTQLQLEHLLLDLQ[Nle]ILEGINNYKNPKLTR[Nle]L[hSer][Yn3(4)]KF[Ygp(4)][Nle]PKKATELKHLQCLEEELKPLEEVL[hSer]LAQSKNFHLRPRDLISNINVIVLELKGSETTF[hSer]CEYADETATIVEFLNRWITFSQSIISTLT | 0.0 |
| CMP-152, MMP2 cleaved molecule (ligand, not fully specified (bridges); also: MMP2 cleaved, site not given here) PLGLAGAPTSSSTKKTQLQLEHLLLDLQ[Nle]ILNGINNYKNPKLTR[Nle]L[hSer][Yn3″]KF[Ygp″][Nle]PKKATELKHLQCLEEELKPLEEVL[hSer]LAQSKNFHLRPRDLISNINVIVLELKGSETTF[hSer]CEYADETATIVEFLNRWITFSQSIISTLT | 0.0 |
